molecular target: HKU24 HR2 peptide (HKU24); assay: peptide ELISA
readoutLabel: EC50

I'd like to know its EC50. The binder in question is hr2.013 (antibody, V domains shown) VH: QVQLVQSGAEVKKPGASVKISCKASGYTFTNNYMNWVRQAPGQGLEWMGIIKPSSGSTIYAHKFQGRVTMTRDTSTSTVYMEVRSLTSEDTAVYYCARDQDHGLQNWGQGTLVTVSS VL: QSVLTQPPSVSAASGQKVTIYCSGSSSNIASNFVSWYQQFPGTAPKLLIYDNNQRPSGIPDRFSGSRSGTSATLGITGLQTGDEADYYCGTWDTSLGAWVFGGGTKLTVL 0.027 µg/mL

The record that follows has no EC50 shown yet.
I'd like to know its EC50. The binder in question is hr2.016 (antibody, V domains shown) VH: EVQLLESGGGLVQPGGSLRLSCAASGFMFSKYAMTWVRQTPGKGLEWVSVISGGGGSTYYADSVKGRFTISRDNSKNTLYLQMNSLRAEDTAVYYCAKLLVVFVIDYWGQGALVTVSS VL: EIVLTQSPGTLSLSPGERATLFCRASQSVSSNLAWYQQKPGRAPRLLISGASSRATGIPDRFSGSGSGTDFTLTISRLEPEDFAVYYCQQYGSSPPTFGQGTKVEIK 0.00958 µg/mL

Data provenance: patent US20250382354A1
